# Tested on: cancer cells
# testDescription: MTS assay: inhibition of cell growth (formazan absorbance at 492 nm after 72 hours with test compound)
# Assay type: cell-based
# measurementContext: Homo sapiens, PC-3 cells, inhibition class, read-out: PC-3, MTS 72 hours at 10 uM
Some compounds, each annotated with its measured inhibition at 10 µM.

Below: 5 compounds and their reported inhibition at 10 µM.
CC(C)CNC(=O)C1CN(Cc2ccccc2)c2nc(NCc3ccccc3)nc3[nH]nc1c23 (centres unmarked)
< 50%
COc1ccc(CN2CCCc3n[nH]c4nc(N5CCCCC5)nc2c34)cc1
< 50%
COc1cc(OC)nc(CN2CCN(c3nc4c5c(n[nH]c5n3)CCN4Cc3ccccc3)CC2)n1
< 50%
c1ccc(CCNc2nc3c4c(n[nH]c4n2)CCN3)cc1
> 79%
c1ccc(CN2CCN(c3nc4c5c(n[nH]c5n3)CCN4c3ccccc3)CC2)cc1
< 50%

Suppose we examine the compound CN1CCN(c2nc3c4c(n[nH]c4n2)CCN3Cc2ccccc2)CC1 ; what inhibition at 10 µM value has been reported?
< 50%

Data request, read-out inhibition at 10 µM, for c1ccc(CN2CCc3n[nH]c4nc(NCc5ccc(Oc6ccccc6)cc5)nc2c34)cc1
< 50%

Recorded inhibition at 10 µM of COc1ccc(CN2CCCc3n[nH]c4nc(N5CCN(Cc6ccccc6)CC5)nc2c34)cc1 , please.
> 79%

For c1ccc(CN2CCc3n[nH]c4nc(NCCc5cccnc5)nc2c34)cc1 , what is its reported inhibition at 10 µM?
< 50%

Find the recorded inhibition at 10 µM belonging to Fc1ccccc1CCNc1nc2c3c(n[nH]c3n1)CCN2Cc1ccccc1 and report it.
< 50%

Item O=C(NCc1ccccc1)C1CN(Cc2ccccc2)c2nc(NCCc3c[nH]c4ccccc34)nc3[nH]nc1c23 (centres unmarked) has what recorded inhibition at 10 µM?
> 79%

Fill in the blank: the reported inhibition at 10 µM of c1ccc(CN2CCc3n[nH]c4nc(NCC5COc6ccccc6O5)nc2c34)cc1 (centres unmarked) is ____.
< 50%

Entry CN(C)CCCNc1nc2c3c(n[nH]c3n1)C(C(=O)NCc1ccccc1)CN2Cc1ccccc1 (centres unmarked) has what inhibition at 10 µM?
< 50%

I have this compound here, Cc1ccccc1CNC(=O)C1CN(Cc2ccccc2)c2nc(NCc3ccccc3)nc3[nH]nc1c23 (centres unmarked) , and I need its recorded inhibition at 10 µM.
> 79%

Request the reported inhibition at 10 µM associated with c1ccc(CN2CCc3n[nH]c4nc(N5CCc6ccccc6C5)nc2c34)cc1
50 to 79%

Recorded inhibition at 10 µM of Fc1cccc(CNc2nc3c4c(n[nH]c4n2)CCN3)c1 , please.
> 79%

Find the recorded inhibition at 10 µM belonging to c1ccc(N2CCc3n[nH]c4nc(N5CCN(c6ccncc6)CC5)nc2c34)cc1 and report it.
> 79%

---

# Tested on: cancer cells
# testDescription: MTS assay: inhibition of cell growth (formazan absorbance at 492 nm after 72 hours with test compound)
# Type: cell-based
# measurementContext: Homo sapiens, PC-3 cells, inhibition class, read-out: PC-3, MTS 72 hours at 10 uM
# Experimental: Cells were maintained at 37° C., 5% CO2 in DMEM media supplemented with 1% fetal bovine serum, penicillin/streptomycin and fungizone (Invitrogen). Cells were seeded into 96-well tissue culture plates at 3000 per well and cultured at 37° C. for 18 hours. Test compounds were dissolved and diluted to 300× in DMSO then diluted 1:40 in DMEM. […] The measurement of the absorbance of the formazan was assessed using an ENVISION™ (Perkin Elmer) microplate reader at 492 nm. […]
property: inhibition at 10 µM

Clc1ccc(CNc2nc3c4c(n[nH]c4n2)CCN3c2ccccc2)cc1
< 50%
Cn1c(CNc2nc3c4c(n[nH]c4n2)CCN3Cc2ccccc2)nc2ccccc21
< 50%
O[C@H](CNc1nc2c3c(n[nH]c3n1)CCN2Cc1ccccc1)c1ccccc1
< 50%
Clc1cncc(Cl)c1N1CCN(c2nc3c4c(n[nH]c4n2)CCN3Cc2ccccc2)CC1
> 79%
O=C(NCc1ccccc1)C1CN(Cc2ccccc2)c2nc(N3CCCCC3)nc3[nH]nc1c23 (stereo not shown)
> 79%

Data request, read-out inhibition at 10 µM, for c1ccc(CN2CCc3n[nH]c4nc(N5CCN(c6cnccn6)CC5)nc2c34)cc1
< 50%

If you can, please state the reported inhibition at 10 µM value of COc1ccc(CN2CCN(c3nc4c5c(n[nH]c5n3)CCN4Cc3ccccc3)CC2)cc1 .
< 50%

Need inhibition at 10 µM of COc1ccc(CN2CCCc3n[nH]c4nc(NCCc5ccc(F)cc5)nc2c34)cc1 , thanks.
> 79%

For the molecule shown here, COc1ccc(CCNc2nc3c4c(n[nH]c4n2)CCN3Cc2ccccc2)cc1 , give the reported inhibition at 10 µM.
> 79%

Request the reported inhibition at 10 µM associated with COc1ccc(CN2CCc3n[nH]c4nc(NCCN5CCOCC5)nc2c34)cc1
> 79%

Please give the measured inhibition at 10 µM for this molecule: CCC(C)Nc1nc2c3c(n[nH]c3n1)CCN2Cc1ccccc1 (stereo not shown)
< 50%

Tell me the measured inhibition at 10 µM of COC(=O)Cn1nc2c3c(nc(SC)nc31)N(Cc1ccccc1)CC2 , please.
> 79%

Record request: inhibition at 10 µM value, item OCCN(Cc1ccccc1)c1nc2c3c(n[nH]c3n1)CCN2Cc1ccccc1
< 50%

---

# Test system: cancer cells
# testDescription: MTS assay: inhibition of cell growth (formazan absorbance at 492 nm after 72 hours with test compound)
# Assay type: cell-based
# measurementContext: Homo sapiens, PC-3 cells, inhibition class, read-out: PC-3, MTS 72 hours at 10 uM
property: inhibition at 10 µM

Examples with answers:
COc1ccc(CN2CCc3n[nH]c4nc(NCc5ccccc5Cl)nc2c34)cc1 [Compound 112]
> 79%
O=C1CCCN1CCCNc1nc2c3c(n[nH]c3n1)CCN2Cc1ccccc1 [Compound 51]
< 50%
c1ccc(CN2CCc3n[nH]c4nc(N5CCN(Cc6ccc7c(c6)OCO7)CC5)nc2c34)cc1 [Compound 15]
< 50%

Okay, next one:
Lab request: please report inhibition at 10 µM under test system cancer cells for c1ccc(N2CCc3n[nH]c4nc(N5CCOCC5)nc2c34)cc1 [Compound 218]
< 50%

---

We begin with a simple list: items and their reported inhibition at 10 µM.
# Tested on: cancer cells
# testDescription: MTS assay: inhibition of cell growth (formazan absorbance at 492 nm after 72 hours with test compound)
# Assay type: cell-based
# measurementContext: Homo sapiens, PC-3 cells, inhibition class, read-out: PC-3, MTS 72 hours at 10 uM
# Description: Cells were maintained at 37° C., 5% CO2 in DMEM media supplemented with 1% fetal bovine serum, penicillin/streptomycin and fungizone (Invitrogen). Cells were seeded into 96-well tissue culture plates at 3000 per well and cultured at 37° C. for 18 hours. Test compounds were dissolved and diluted to 300× in DMSO then diluted 1:40 in DMEM. […] The measurement of the absorbance of the formazan was assessed using an ENVISION™ (Perkin Elmer) microplate reader at 492 nm. […]

c1ccc(CN2CCc3n[nH]c4nc(N5CCN(Cc6cccnc6)CC5)nc2c34)cc1 [Compound 88]
> 79%
COc1ccc(CN2CCc3n[nH]c4nc(SC)nc2c34)cc1 [Compound 99]
< 50%
COc1cc2c(cc1OC)CN(c1nc3c4c(n[nH]c4n1)CCN3Cc1ccccc1)CC2 [Compound 58]
> 79%
COc1ccccc1CCNc1nc2c3c(n[nH]c3n1)CCN2Cc1ccccc1 [Compound 48]
< 50%
CN1CCC(Nc2nc3c4c(n[nH]c4n2)CCN3c2ccccc2)CC1 [Compound 219]
> 79%

# value lookup — system cancer cells, readout inhibition at 10 µM, item COc1ccc(CN2CCc3n[nH]c4nc(NCCc5ccccc5)nc2c34)cc1 [Compound 116]
> 79%

// map Fc1ccccc1CN1CCN(c2nc3c4c(n[nH]c4n2)CCN3Cc2ccccc2)CC1 [Compound 5] to recorded inhibition at 10 µM (system: cancer cells)
> 79%

Request body: readout inhibition at 10 µM, system cancer cells, query c1ccc(CN2CCc3n[nH]c4nc(N5CCN6CCCC6C5)nc2c34)cc1 (stereo not drawn) [Compound 42] . Return the value.
< 50%

Param readout = inhibition at 10 µM; param system = cancer cells; param query = COc1ccc(CN2CCc3n[nH]c4nc(NCCc5ccc(F)cc5)nc2c34)cc1 [Compound 109] ; response: value
< 50%

---

# System: cancer cells
# testDescription: MTS assay: inhibition of cell growth (formazan absorbance at 492 nm after 72 hours with test compound)
# Format: cell-based
# measurementContext: Homo sapiens, PC-3 cells, inhibition class, read-out: PC-3, MTS 72 hours at 10 uM
// values below are reported inhibition at 10 µM

Here is how some compounds turned out for inhibition at 10 µM.
O=C(C1CN(Cc2ccccc2)c2nc(NCc3ccccc3)nc3[nH]nc1c23)N1CCOCC1 (centres unmarked)
< 50%
c1ccc(CN2CCc3n[nH]c4nc(NC5CCC5)nc2c34)cc1
< 50%
c1ccc(CN2CCc3n[nH]c4nc(N5CCN(CCc6ccncc6)CC5)nc2c34)cc1
< 50%
COc1ccc(CCN(C)c2nc3c4c(n[nH]c4n2)CCN3Cc2ccccc2)cc1OC
< 50%
Fc1ccc(CCNc2nc3c4c(n[nH]c4n2)CCN3c2ccccc2)cc1
< 50%
c1ccc(CN2CCc3n[nH]c4nc(NCc5ccc6c(c5)OCO6)nc2c34)cc1
< 50%
COc1cccc(CCNc2nc3c4c(n[nH]c4n2)CCN3Cc2ccccc2)c1OC
< 50%
COc1ccc(CN2CCc3nn(C)c4nc(SC)nc2c34)cc1
< 50%
COc1ccc(CN2CCc3n[nH]c4nc(NCc5cccc(F)c5)nc2c34)cc1
> 79%
COc1ccc(CN2CCCc3n[nH]c4nc(NCCN5CCOCC5)nc2c34)cc1
< 50%

Look up inhibition at 10 µM: O=C(c1ccco1)N1CCN(c2nc3c4c(n[nH]c4n2)CCN3Cc2ccccc2)CC1
< 50%

Which inhibition at 10 µM value belongs to c1ccc(N2CCc3n[nH]c4nc(N5CCCC5)nc2c34)cc1 ?
< 50%

inhibition at 10 µM lookup needed for c1ccc(CCNc2nc3c4c(n[nH]c4n2)CCN3c2ccccc2)cc1 , thanks.
50 to 79%

What measured inhibition at 10 µM goes with c1ccc(CN2CCc3n[nH]c4nc(NCCc5c[nH]c6ccccc56)nc2c34)cc1 ?
< 50%
